Reported IC50 values follow for various molecules
target: Mouse AhR (Mus musculus, UniProt P30561)
Sequence (P30561 1-848 P471L/N533S/M589L): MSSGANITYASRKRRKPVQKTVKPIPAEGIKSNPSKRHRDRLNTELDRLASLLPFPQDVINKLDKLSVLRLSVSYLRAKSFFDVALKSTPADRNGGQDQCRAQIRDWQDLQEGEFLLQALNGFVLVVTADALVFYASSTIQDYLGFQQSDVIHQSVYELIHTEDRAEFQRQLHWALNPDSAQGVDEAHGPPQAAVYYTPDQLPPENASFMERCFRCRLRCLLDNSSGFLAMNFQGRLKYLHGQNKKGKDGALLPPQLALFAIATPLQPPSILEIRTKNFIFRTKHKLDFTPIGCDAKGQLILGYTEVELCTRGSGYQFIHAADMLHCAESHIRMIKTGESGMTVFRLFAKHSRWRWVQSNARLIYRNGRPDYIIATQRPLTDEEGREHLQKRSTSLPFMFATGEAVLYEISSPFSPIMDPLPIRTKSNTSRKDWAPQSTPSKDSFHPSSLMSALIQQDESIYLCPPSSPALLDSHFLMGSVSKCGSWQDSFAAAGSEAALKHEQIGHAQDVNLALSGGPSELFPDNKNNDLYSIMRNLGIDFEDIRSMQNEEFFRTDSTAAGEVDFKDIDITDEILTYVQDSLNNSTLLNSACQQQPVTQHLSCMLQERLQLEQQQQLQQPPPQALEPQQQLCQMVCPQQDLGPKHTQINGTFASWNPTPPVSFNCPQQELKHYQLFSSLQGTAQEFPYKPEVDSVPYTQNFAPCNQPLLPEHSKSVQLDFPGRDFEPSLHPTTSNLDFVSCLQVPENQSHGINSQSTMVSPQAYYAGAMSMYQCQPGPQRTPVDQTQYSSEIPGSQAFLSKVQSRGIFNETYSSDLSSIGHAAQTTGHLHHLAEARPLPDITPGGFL
assay-info: Transactivation assay in mouse cell line (in vitro assay 2): antagonism
experimental-context: Hepa 1c1c7 cells, AHR inducible firefly luciferase reporter (DRE), 200 μM kynurenic acid, 20 hours

molecule	comparison-symbol	IC50 [nM]
CC(C)(O)CNC(=O)c1cc(-c2ccc(OC(F)(F)F)cc2)nc(-c2cccc(F)c2)n1 [Example 7]	>	20000
CC(C)(O)CNC(=O)c1cc(-c2ccc(C(F)(F)F)cc2)nc(-c2cccc(F)c2)n1 [Example 8]	>	20000
C[C@@H](CO)NC(=O)c1cc(-c2ccc(OC(F)(F)F)cc2)nc(-c2cccc(F)c2)n1 [Example 5]	=	1.28
C[C@@H](CO)NC(=O)c1cc(-c2ccc(Cl)cc2)nc(-c2ccc(F)c(Cl)c2)n1 [Example 66]	=	148
CC(C)(O)CNC(=O)c1cc(-c2ccc(Cl)cc2)nc(-c2cc(Cl)cc(Cl)c2)n1 [Example 51]	=	3090
